Source: patent US20090035306A1

Listing of entries alongside the reported pEC50.
biological target: human TGR5 (Homo sapiens); construct: expressed in transfected cells; assay: cAMP production assay in HEK293 cells stably expressing TGR5 (LANCE TR-FRET); assay type: cell-based; conditions: 30 minutes stimulation, read-out: cAMP Production in 293-TGR5 Cells EC50
Sequence (Q8TDU6 whole entry): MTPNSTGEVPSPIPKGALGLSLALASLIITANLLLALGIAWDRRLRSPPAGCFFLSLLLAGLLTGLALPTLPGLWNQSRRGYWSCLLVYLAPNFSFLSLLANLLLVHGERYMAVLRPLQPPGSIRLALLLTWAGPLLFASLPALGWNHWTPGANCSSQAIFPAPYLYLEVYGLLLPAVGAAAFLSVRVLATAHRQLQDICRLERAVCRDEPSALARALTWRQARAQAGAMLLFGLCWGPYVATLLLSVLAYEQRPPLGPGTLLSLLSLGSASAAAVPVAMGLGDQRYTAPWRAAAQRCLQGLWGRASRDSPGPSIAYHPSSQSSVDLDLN
pEC50: −log10 of the molar value.

STRUCTURE AS SMILES: Cc1ccc2c(=O)n(NCc3ccc(C(F)(F)F)cc3)c(-c3ccc(F)cc3)nc2c1
pEC50: < 5.00
--
STRUCTURE AS SMILES: COc1ccccc1-c1nc2ccccc2c(=O)n1NCc1ccc(Br)cc1
pEC50: < 5.00
--
STRUCTURE AS SMILES: N#Cc1ccc(CNn2c(-c3ccc(F)cc3)nc3ccccc3c2=O)cc1
pEC50: ≥ 5.00
--
STRUCTURE AS SMILES: COc1cccc2c(=O)n(NCc3ccc(Cl)cc3)c(-c3ccc(F)cc3)nc12
pEC50: ≥ 5.00
--
STRUCTURE AS SMILES: COc1ccc2nc(-c3ccccc3F)n(NCc3ccc(F)cc3F)c(=O)c2c1
pEC50: ≥ 5.00
